ASSAY SYSTEM: CYP2C9 (Homo sapiens (Human))
Sequence (P11712 whole entry): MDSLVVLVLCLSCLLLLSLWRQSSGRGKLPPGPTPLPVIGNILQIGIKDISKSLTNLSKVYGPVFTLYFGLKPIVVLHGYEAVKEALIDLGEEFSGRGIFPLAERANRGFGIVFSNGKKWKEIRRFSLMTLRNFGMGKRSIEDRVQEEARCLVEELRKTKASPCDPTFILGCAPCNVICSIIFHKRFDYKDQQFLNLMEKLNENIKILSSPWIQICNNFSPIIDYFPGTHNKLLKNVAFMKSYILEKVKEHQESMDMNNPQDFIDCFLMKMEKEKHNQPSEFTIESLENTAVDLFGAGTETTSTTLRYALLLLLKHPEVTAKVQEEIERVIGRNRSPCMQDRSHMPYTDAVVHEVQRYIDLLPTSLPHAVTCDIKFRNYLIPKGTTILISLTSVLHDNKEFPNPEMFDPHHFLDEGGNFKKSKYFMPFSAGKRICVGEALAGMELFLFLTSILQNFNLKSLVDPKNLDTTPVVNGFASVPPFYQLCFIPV
METHOD: Cytochrome P450 inhibition in human liver microsomes, CYP2C9
RECORDED CONDITIONS: read-out: 2C9 IC50, Protocol 1
pIC50: −log10 of the molar value.

| COMPOUND | pIC50 |
| --- | --- |
| O=C(OCC12CCN(CC1)CC2)c1c[nH]c2cc(O)cc(Br)c12 | < 5.00 |
| O=C(OCC12CCN(CC1)CC2)c1c[nH]c2cc(O)cc(Cl)c12 | < 5.00 |
| Cl.O=C(OCC12CCN(CC1)CC2)c1c[nH]c2cc(Cl)c(F)cc12 [Compound 52, hydrochloride] | < 5.00 |
| O=C(OCC12CCN(CC1)CC2)c1c[nH]c2cc(Cl)cc(Br)c12 | < 5.00 |
| Cc1c(F)ccc2[nH]cc(C(=O)OCC34CCN(CC3)CC4)c12 | < 5.00 |
| Cc1cc(F)cc2[nH]cc(C(=O)OCC34CCN(CC3)CC4)c12 | < 5.00 |
| Cc1cc(O)cc2[nH]cc(C(=O)OCC34CCN(CC3)CC4)c12 | < 5.00 |
| Cc1ccc2c(C(=O)OCC34CCN(CC3)CC4)c[nH]c2c1.Cl [Compound 45, hydrochloride] | < 5.00 |
| O=C(OCC12CCN(CC1)CC2)c1c[nH]c2cc(F)cc(Br)c12 | < 5.00 |
